# system-name: Aβ(1-40) (Homo sapiens)
# Construct: […]; purchased Bachem, Torrance, Calif
# Sequence (P05067 672-711 limits assumed): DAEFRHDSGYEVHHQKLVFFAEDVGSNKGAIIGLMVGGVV
# measurement-notes: BASST (Beta-Amyloid Self-Seeding, Thioflavin T), inhibitors of self-seeded amyloid fibril growth
# Format: biochemical
# experimental-context: 30 μM soluble Aβ(1-40), 37° C., 3 to 5 hours, thioflavin T fluorescence; replicate values; letter = synthetic lot; read-out: BASST (IC50 = μM)
Here, each record is paired with measured IC50 data.
Expressed in µM, but write only the number.

I have this compound here, `Nc1ccc(CCc2ccc(Nc3ccccc3C(=O)O)cc2)cc1` , and I need its recorded IC50.
20

I have this compound here, `O=C(NS(=O)(=O)C(F)(F)F)c1ccccc1Nc1ccc(CCCc2ccc(Cl)c(Cl)c2)cc1` , and I need its recorded IC50.
7

I have this compound here, `CCCN(CCC)c1ccc(CCCc2ccc(Nc3ccccc3C(=O)O)cc2)cc1` , and I need its recorded IC50.
0.3

I have this compound here, `CCCCN(CCCC)c1ccc(CCCc2ccc(Nc3ccccc3C(=O)O)cc2)cc1` , and I need its recorded IC50.
1

I have this compound here, `O=C(O)c1ccc(C(F)(F)F)cc1Nc1ccc(CCc2ccc(Cl)c(Cl)c2)cc1` , and I need its recorded IC50.
4

I have this compound here, `O=C(O)c1ccccc1Nc1ccc(CCc2ccccc2)cc1` , and I need its recorded IC50.
10

I have this compound here, `O=C(O)c1cc([N+](=O)[O-])ccc1Nc1ccc(CCc2ccccc2)cc1` , and I need its recorded IC50.
1.5
